tested on: HCV (Ib) RNA replication; assay: Cell-based luciferase reporter HCV (1b) RNA replication assay (replicon cell lines Huh-7 5.2 and ET); parameters: species or system Hepatitis C virus; conditions: Hepatitis C virus, Huh-7, 96 h, HCV 1b genotype replicon, luciferase readout, 4 days incubation; read-out: EC50_1b
outcome_measure: EC50

Inquiry: Provide EC50 value for the following molecule: COC(=O)N(C)[C@H](C(=O)N1C[C@@H](C)C[C@H]1c1nc2ccc(C#CC#Cc3ccc4nc([C@@H]5C[C@H](C)CN5C(=O)[C@H](C(C)C)N(C)C(=O)OC)[nH]c4c3)cc2[nH]1)C(C)C
Reply text: ≤ 5 nM

Inquiry: Provide EC50 value for the following molecule: CC[C@H](NC(=O)OC)C(=O)N1CCC[C@H]1c1nc2cc(C#Cc3ccc4[nH]c([C@@H]5CCCN5C(=O)[C@H](CC)NC(=O)OC)nc4c3)ccc2[nH]1
Reply text: ≤ 5 nM

Inquiry: Provide EC50 value for the following molecule: O=C(N1CCOCC1)N1CCC[C@H]1c1nc2cc(C#Cc3ccc4[nH]c([C@@H]5CCCN5C(=O)N5CCOCC5)nc4c3)ccc2[nH]1
Reply text: ≤ 5 nM

Inquiry: Provide EC50 value for the following molecule: COC(=O)N[C@H](C(=O)N1CCC[C@H]1c1nc2cc(-c3ccc(-c4ccc5nc([C@@H]6CCCN6C(=O)[C@@H](NC(=O)OC)C(C)C)[nH]c5c4)cc3OC)ccc2[nH]1)C(C)C
Reply text: ≤ 5 nM

Inquiry: Provide EC50 value for the following molecule: COC(=O)N[C@H](C(=O)N1CCC[C@H]1c1nc2cc(C#Cc3ccc4[nH]c([C@@H]5CCCN5C(=O)[C@@H](NC(=O)OC)[C@@H](C)OC)nc4c3)ccc2[nH]1)[C@@H](C)OC
Reply text: ≤ 5 nM

Inquiry: Provide EC50 value for the following molecule: COC(=O)N[C@H](C(=O)N1CCC[C@H]1c1nc2ccc(-c3cnc(-c4ccc5nc([C@@H]6CCCN6C(=O)[C@@H](NC(=O)OC)C(C)C)[nH]c5c4)n3C)cc2[nH]1)C(C)C
Reply text: 5 to 5000 nM

Inquiry: Provide EC50 value for the following molecule: COC(=O)N[C@H](C(=O)N1CC2CC2C1c1nc2cc(-c3ccc(-c4ccc5[nH]c(C6C7CC7CN6C(=O)[C@@H](NC(=O)OC)C(C)C)nc5c4)cc3)ccc2[nH]1)C(C)C (stereo partly shown)
Reply text: ≤ 5 nM

Inquiry: Provide EC50 value for the following molecule: COC(=O)N[C@H](C(=O)N1CCC[C@H]1c1nc2cc(C#Cc3ccc4nc([C@@H]5CCCN5C(=O)[C@H](O)C(C)C)[nH]c4c3)ccc2[nH]1)C(C)C
Reply text: ≤ 5 nM

Inquiry: Provide EC50 value for the following molecule: COC(=O)N[C@H](C(=O)N1CCC[C@H]1c1nc2cc(-c3ccc(-c4ccc5c(c4)nc([C@@H]4CCCN4C(=O)[C@@H](NC(=O)OC)C(C)C)n5C)cc3)ccc2[nH]1)C(C)C
Reply text: ≤ 5 nM

Inquiry: Provide EC50 value for the following molecule: Cc1nc(C)c(C(=O)N2CCC[C@H]2c2nc3cc(C#Cc4ccc5nc([C@@H]6CCCN6C(=O)c6sc(C)nc6C)[nH]c5c4)ccc3[nH]2)s1
Reply text: 5 to 5000 nM

Inquiry: Provide EC50 value for the following molecule: COC(=O)N[C@H](C(=O)N1CCC[C@H]1c1nc2cc(C)c(-c3ccc(-c4cc5[nH]c([C@@H]6CCCN6C(=O)[C@@H](NC(=O)OC)C(C)C)nc5cc4C)cc3)cc2[nH]1)C(C)C
Reply text: ≤ 5 nM

Inquiry: Provide EC50 value for the following molecule: COC(=O)N[C@H](C(=O)N1CCC[C@H]1c1nc2cc(-c3csc(-c4ccc5[nH]c([C@@H]6CCCN6C(=O)[C@@H](NC(=O)OC)C(C)C)nc5c4)n3)ccc2[nH]1)C(C)C
Reply text: ≤ 5 nM

Inquiry: Provide EC50 value for the following molecule: CC(C)[C@H](N)C(=O)N1CCC[C@H]1c1nc2ccc(-c3ccc(-c4ccc5nc([C@@H]6CCCN6C(=O)[C@@H](N)C(C)C)[nH]c5c4)cc3)cc2[nH]1
Reply text: 5 to 5000 nM

Inquiry: Provide EC50 value for the following molecule: COC(=O)N[C@H](C(=O)N1C[C@@H](C)C[C@H]1c1nc2cc(-c3cc4sc(-c5ccc6[nH]c([C@@H]7C[C@H](C)CN7C(=O)[C@H](C(C)C)N(C)C(=O)OC)nc6c5)cc4s3)ccc2[nH]1)C(C)C
Reply text: ≤ 5 nM

Inquiry: Provide EC50 value for the following molecule: CCc1cc(-c2ccc3[nH]c([C@@H]4CCCN4C(=O)[C@@H](NC(=O)OC)C(C)C)nc3c2)ccc1-c1ccc2[nH]c([C@@H]3CCCN3C(=O)[C@@H](NC(=O)OC)C(C)C)nc2c1
Reply text: ≤ 5 nM

Inquiry: Provide EC50 value for the following molecule: COC(=O)N[C@H](C(=O)N1CCC[C@H]1c1nc2cc(C#Cc3ccc4nc([C@@H]5CCCN5C(=O)[C@@H](NC(=O)OC(C)(C)C)C5CCCCC5)[nH]c4c3)ccc2[nH]1)C(C)C
Reply text: ≤ 5 nM

Inquiry: Provide EC50 value for the following molecule: CC(C)(C)CC(=O)N1CCC[C@H]1c1nc2cc(C#Cc3ccc4[nH]c([C@@H]5CCCN5C(=O)CC(C)(C)C)nc4c3)ccc2[nH]1
Reply text: 5 to 5000 nM

Inquiry: Provide EC50 value for the following molecule: COC(=O)N[C@H](C(=O)N1C[C@@H](C)C[C@H]1c1nc2cc(-c3cnc(-c4ccc5[nH]c([C@@H]6C[C@H](C)CN6C(=O)[C@@H](NC(=O)OC)C(C)C)nc5c4)cn3)ccc2[nH]1)C(C)C
Reply text: ≤ 5 nM

Inquiry: Provide EC50 value for the following molecule: COC(=O)N[C@H](C(=O)N1C[C@@H](C)C[C@H]1c1nc2cc(-c3ccc(-c4ccc5nc([C@@H]6C[C@H](C)CN6C(=O)[C@H](C(C)C)N(C(=O)OC)C(C)C)[nH]c5c4)cc3)ccc2[nH]1)C(C)C
Reply text: ≤ 5 nM

----------
tested on: HCV (Ib) RNA replication; assay: Cell-based luciferase reporter HCV (1b) RNA replication assay (replicon cell lines Huh-7 5.2 and ET); parameters: species or system Hepatitis C virus; conditions: Hepatitis C virus, Huh-7, 96 h, HCV 1b genotype replicon, luciferase readout, 4 days incubation; read-out: EC50_1b
pEC50: −log10 of the molar value.
Hi there, I'd appreciate the recorded pEC50 for every entry that follows.

Inquiry: Provide pEC50 value for the following compound: COC(=O)N[C@H](C(=O)N1CC2(CC2)C[C@H]1c1nc2cc(-c3ccc(-c4ccc5[nH]c([C@@H]6CC7(CC7)CN6C(=O)[C@@H](NC(=O)OC)C(C)C)nc5c4)cc3)ccc2[nH]1)C(C)C [Compound 245]
Reply text: ≥ 8.30

Inquiry: Provide pEC50 value for the following compound: COC(=O)N[C@H](C(=O)N1CCC[C@H]1c1nc2cc(-c3ccc(-c4ccc5[nH]c([C@@H]6CCCN6C(=O)[C@@H](NC(=O)OC)C(C)C)nc5c4)c(C#N)n3)ccc2[nH]1)C(C)C [Compound 11]
Reply text: 5.30 to 8.30

Inquiry: Provide pEC50 value for the following compound: COC(=O)N[C@H](C(=O)N1CCC[C@H]1c1nc2cc(-c3ccsc3-c3ccc4[nH]c([C@@H]5CCCN5C(=O)[C@@H](NC(=O)OC)C(C)C)nc4c3)ccc2[nH]1)C(C)C [Compound 133]
Reply text: ≥ 8.30

----------
system: HCV (Ib) RNA replication; experiment: Cell-based luciferase reporter HCV (1b) RNA replication assay (replicon cell lines Huh-7 5.2 and ET); design: species or system Hepatitis C virus; settings: Hepatitis C virus, Huh-7, 96 h, HCV 1b genotype replicon, luciferase readout, 4 days incubation; read-out: EC50_1b
outcome_measure: EC50

Inquiry: Provide EC50 value for the following molecule: COC(=O)NCC(=O)N1CCC[C@H]1c1nc2cc(C#Cc3ccc4nc([C@@H]5CCCN5C(=O)CNC(=O)OC)[nH]c4c3)ccc2[nH]1
Reply text: 5 to 5000 nM

Inquiry: Provide EC50 value for the following molecule: CC(C)(C)CCN1CCC[C@H]1c1nc2cc(C#Cc3ccc4[nH]c([C@@H]5CCCN5CCC(C)(C)C)nc4c3)ccc2[nH]1
Reply text: 5 to 5000 nM

Inquiry: Provide EC50 value for the following molecule: COC(=O)N[C@H](C(=O)N1CC[C@@H](O)[C@H]1c1nc2ccc(-c3ccc(-c4ccc5nc([C@@H]6[C@H](O)CCN6C(=O)[C@@H](NC(=O)OC)C(C)C)[nH]c5c4)cc3)cc2[nH]1)C(C)C
Reply text: ≤ 5 nM

Inquiry: Provide EC50 value for the following molecule: c1cc(-c2ccc3[nH]c([C@@H]4CCCN4CCC4CCOCC4)nc3c2)ccc1-c1ccc2[nH]c(C3CCCN3CCC3CCOCC3)nc2c1 (stereo partly shown)
Reply text: 5 to 5000 nM

Inquiry: Provide EC50 value for the following molecule: COC(=O)N[C@H](C(=O)N1C[C@H](C)C[C@H]1c1nc2cc(-c3ccc(-c4ccc5[nH]c([C@@H]6C[C@@H](C)CN6C(=O)[C@@H](NC(=O)OC)C(C)C)nc5c4)c(C)c3)ccc2[nH]1)C(C)C
Reply text: ≤ 5 nM

Inquiry: Provide EC50 value for the following molecule: CC(C)(C)OC(=O)N1CCCC[C@H]1c1nc2cc(C#Cc3ccc4[nH]c([C@@H]5CCCCN5C(=O)OC(C)(C)C)nc4c3)ccc2[nH]1
Reply text: ≤ 5 nM

Inquiry: Provide EC50 value for the following molecule: CC(C)[C@H](NS(C)(=O)=O)C(=O)N1CCC[C@H]1c1nc2cc(C#Cc3ccc4nc([C@@H]5CCCN5C(=O)[C@@H](NS(C)(=O)=O)C(C)C)[nH]c4c3)ccc2[nH]1
Reply text: 5 to 5000 nM

Inquiry: Provide EC50 value for the following molecule: COC(=O)N[C@@H](C)C(=O)N1CCC[C@H]1c1nc2cc(C#Cc3ccc4[nH]c([C@@H]5CCCN5C(=O)[C@H]5CCCO5)nc4c3)ccc2[nH]1
Reply text: ≤ 5 nM

Inquiry: Provide EC50 value for the following molecule: COC(=O)N[C@H](C(=O)N1C[C@@H](C)C[C@H]1c1nc2cc(-c3cc4sc(-c5ccc6nc([C@@H]7C[C@H](C)CN7C(=O)[C@@H](NC(=O)OC)C(C)C)n(C)c6c5)cc4s3)ccc2[nH]1)C(C)C
Reply text: ≤ 5 nM

Inquiry: Provide EC50 value for the following molecule: COC(=O)N[C@H](C(=O)N1C(C)CC[C@H]1c1nc2cc(-c3ccc(-c4ccc5[nH]c([C@@H]6CCC(C)N6C(=O)[C@@H](NC(=O)OC)C(C)C)nc5c4)c(C)c3)ccc2[nH]1)C(C)C (stereo partly shown)
Reply text: ≤ 5 nM
